- Test system: LXRa:RXRa (NR concentration 270 nM, RXRa partner concentration 90 nM)
- assay overview: PBM binding z-score (relative to random genomic background probes); higher = stronger binding; sequences stand for … in GC…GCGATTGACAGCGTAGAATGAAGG
value kind: PBM binding z-score
Answer as a number with no unit attached.

Task item: What does the record list as PBM binding z-score for CCTAGTTGGTCAGGAGGTCACGCACCGGATATGA ?
Reply: 4.22

Task item: What does the record list as PBM binding z-score for CCTGACGGGTCAAGGTTATAGCACGGGTGGTACG ?
Reply: 2.88

Task item: What does the record list as PBM binding z-score for CCGAGTAGCTTATGGGGCATTCAGGCAACGGTGA ?
Reply: -0.536

Task item: What does the record list as PBM binding z-score for TTACCAAGGTGCGCTGAGGTCGTTGATCCAACTC ?
Reply: 0.599

Task item: What does the record list as PBM binding z-score for TCCGCTAGGTCAACGATGGTCAGCTAATCTGCTA ?
Reply: 2.67

Task item: What does the record list as PBM binding z-score for TCATATAGGTAAAAGGTGAAAGTAGGTGTGGTAA ?
Reply: 2.13
